Data credit: PubChem BioAssay AID1159580

Test: chemical genetic growth profiling, strain panel (AID 1159580);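 note: tested at 20 µM; growth read once vehicle control cultures reached saturation at 30 °C; 1 = growth at the plate median or of vehicle wells; lower values mean less growth of the strain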
Details: S. cerevisiae deletion strains, growth OD, locus YLR262C, strain YPT6, stronger effect = lower value
In all, about 5,500 compounds went through this assay and about 2,000 (36%) were called active. Not shown: some 18% with an inconclusive outcome. The list shows a part of the results.
Binary label based on normalized growth with cut-off 1: below gives 1, not below gives 0.

C=C[C@H]1CN2CC[C@H]1C[C@@H]2[C@@H](OC(=O)OCC)c1ccnc2ccc(OC)cc12 :: 0
O=C(O[C@@H]1Cc2c(O)cc(O)cc2O[C@@H]1c1cc(O)c(=O)c2c(O)c(O)cc([C@H]3Oc4cc(O)cc(O)c4C[C@H]3OC(=O)c3cc(O)c(O)c(O)c3)c2c1)c1cc(O)c(O)c(O)c1 :: 1
Cc1cc(I)c(C)cc1I :: 1
NS(=O)(=O)c1cc(C2(O)NC(=O)c3ccccc32)ccc1Cl (configuration not stated) :: 0
O=C(O[C@@H]1Cc2c(O)cc(O)cc2O[C@@H]1c1cc(O)c(=O)c2c(O)c(O)cc([C@H]3Oc4cc(O)cc(O)c4C[C@H]3O)c2c1)c1cc(O)c(O)c(O)c1 :: 1

For the next question, use this compound.
API: query returns whether the compound falls strictly under 1 in normalized growth. Query: O=C(OC1Cc2c(O)cc(O)cc2OC1c1cc(=O)c(O)c2c(O)c(O)cc(C3Oc4cc(O)cc(O)c4CC3O)c2c1)c1cc(O)c(O)c(O)c1 (configuration not stated)
1

###

Test: chemical genetic growth profiling, strain panel (AID 1159580)
Conditions: S. cerevisiae deletion strains, growth OD, locus YDR150W, strain NUM1, stronger effect = lower value
About 2,000 (36%) of roughly 5,500 compounds were called active. Not shown: some 18% with an inconclusive outcome. The list shows a part of the results.
Value type: normalized growth
Respond numerically, and do not add a unit to the figure.

So for CN(C)C=Nc1nnc(SCc2ccc(C(=O)Oc3ccc(F)cc3F)cc2)s1 , the logged normalized growth turned out to be 0.939

The reported value for O=c1c(O)c(-c2ccc(O)cc2O)oc2cc(O)cc(O)c12 in terms of normalized growth is 0.986

Record summary for C[C@@H]([C@H](O)c1ccccc1)N(C)C : reported normalized growth = 1.01

Just so you know, measured normalized growth for CN(C)C=Nc1nnc(Sc2nc3cc(Cl)ccc3s2)s1 came out at 0.968

For record COc1ccc(-c2cc(=O)c3c(O)cc(O[C@@H]4O[C@H](CO[C@H]5O[C@H](C)[C@@H](O)[C@H](O)[C@@H]5O)[C@@H](O)[C@H](O)[C@H]4O)cc3o2)cc1O the listed normalized growth is 0.99

Noted for C[C@@H]1O[C@@H](OC[C@H]2OC(Oc3c(-c4ccc(O)c(O)c4)oc4cc(O)cc(O)c4c3=O)[C@H](O)[C@@H](O)[C@@H]2O)[C@H](O)[C@H](O)[C@H]1O (stereo partly drawn) : its normalized growth reads 0.996

The compound listed as CN[C@@H]1C(O)[C@@H](O[C@@H]2[C@@H](O)[C@H](O[C@H]3OC(CN)=CC[C@H]3N)[C@@H](N)C[C@H]2N)OC[C@]1(C)O (stereo partly drawn) shows normalized growth equal to 1.02

# compound COc1cc(OC)c(/C=C2/C(=O)Nc3ccccc32)c(OC)c1 ; its normalized growth = 1.01

###

Test: chemical genetic growth profiling, strain panel (AID 1159580)
Details: S. cerevisiae deletion strains, growth OD, locus YGL167C, strain pmr1, stronger effect = lower value
About 2,000 (36%) of roughly 5,500 compounds were called active. Inconclusive results (about 18%) are left out. Some of the results follow.
Value type: normalized growth
Respond with the number and no other words.

A selection of reference data follows.
CC/C(=C(/CC)c1ccc(O)cc1)c1ccc(O)cc1 :: 0.995
NC(N)=NC(=O)c1nc(Cl)c(N)nc1N :: 1.04
CCCC(C)(COC(N)=O)COC(=O)NC(C)C (stereo unspecified) :: 0.991
NC(=O)NCCCC(N)C(=O)O (stereo unspecified) :: 1.03
CC(CC(O)C1OC1(C)C)[C@@H]1CCC2(C)C3=CCC4C(C)(C)C(=O)CCC4(C)C3CC[C@@]12C (stereo partly specified) :: 0.999

Continue with the next compound.
The reported normalized growth of the compound C=CC1C2=CCOC(=O)C2=COC1OC1OC(CO)C(O)C(O)C1O (stereo unspecified) was 1.02

###

Test: chemical genetic growth profiling, strain panel (AID 1159580)
Details: S. cerevisiae deletion strains, growth OD, locus YBR009C, strain hhf1, stronger effect = lower value
Hit rate of the full screen: of about 5,500 compounds, about 2,000 (36%) were called active. About 18% were inconclusive and are not listed. The list shows a part of the results. Where a SMILES comes first, the peptide text is derived from it.
Value type: normalized growth
Respond numerically, and do not add a unit to the figure.

COC(=O)[C@@]1(C)CCC[C@]2(C)c3ccc(O)c(C(C)C)c3CCC12 (some centres undefined) :: 0.364

Record summary for CN1C[C@H](C(=O)N[C@]2(C)O[C@@]3(O)[C@@H]4CCCN4C(=O)[C@H](Cc4ccccc4)N3C2=O)C[C@@H]2c3cccc4[nH]cc(c34)C[C@H]21 : reported normalized growth = 1.07

The measured normalized growth associated with COC(=O)[C@H](Cc1ccccc1)NC(=O)[C@@H](N)CC(=O)O (H-Asp-Phe-OMe) reads 1.02

NC(=O)c1ncn([C@@H]2O[C@H](CO)[C@@H](O)[C@H]2O)n1 has a reported normalized growth of 0.992

###

Readings of normalized growth for the listed molecules
Experiment: chemical genetic growth profiling, strain panel (AID 1159580);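 note: tested at 20 µM; growth read once vehicle control cultures reached saturation at 30 °C; 1 = growth at the plate median or of vehicle wells; lower values mean less growth of the strain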
Details: S. cerevisiae deletion strains, growth OD, locus YLR221C, strain rsa3, stronger effect = lower value
About 2,000 (36%) of roughly 5,500 compounds were called active. Not shown: some 18% with an inconclusive outcome. The list shows a part of the results.
Write the value as a bare number.

CC(=O)OC(C)C[N+](C)(C)C (stereo not given) :: 1
C[C@@H]1O[C@@H](OC[C@H]2OC(Oc3c(-c4ccc(OCCO)c(OCCO)c4)oc4cc(OCCO)cc(O)c4c3=O)[C@H](O)[C@@H](O)[C@@H]2O)[C@H](O)[C@H](O)[C@H]1O (stereo not given in full) :: 0.986
COc1cc(O)c2c(=O)c(O)c(-c3ccc(O)c(O)c3)oc2c1 :: 0.779

Please fill in: normalized growth reported for COc1ccc(-c2oc3c(CC=C(C)C)c(O[C@@H]4O[C@H](CO)[C@@H](O)[C@H](O)[C@H]4O)cc(O)c3c(=O)c2O[C@@H]2O[C@@H](C)[C@H](O)[C@@H](O)[C@H]2O)cc1 = 1.04

Sure, the documented normalized growth for CC(C)[N+](C)(CCC(C(N)=O)(c1ccccc1)c1ccccc1)C(C)C is 0.972

###

Assay: chemical genetic growth profiling, strain panel (AID 1159580);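 note: tested at 20 µM; growth read once vehicle control cultures reached saturation at 30 °C; 1 = growth at the plate median or of vehicle wells; lower values mean less growth of the strain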
Conditions: S. cerevisiae deletion strains, growth OD, locus YFR028C, strain CDC14, stronger effect = lower value
Hit rate of the full screen: of about 5,500 compounds, about 2,000 (36%) were called active. Not shown: some 18% with an inconclusive outcome. The list shows a part of the results.
Value type: normalized growth
The answer should be written as a number, with no unit following it.

// solved cases for normalized growth follow
c1ccc(-c2nnc(-c3ccccn3)nc2-c2ccccc2)cc1 :: 0.871
CCNC(=S)N/N=C\c1cc(Cl)cc(Cl)c1O :: 0.947
Oc1c(Cl)cc(Cl)cc1C=Nc1ccc(Sc2ccccc2)nc1Sc1ccccc1 :: 0.942
FC(F)(F)c1ccc(N2CCc3ccccc3C2)c(NC(=S)Nc2cc(Cl)cc(Cl)c2)c1 :: 0.971
CN(C)C=Nc1nnc(Sc2nc3c(Cl)cc(Cl)cc3s2)s1 :: 0.969

// field: normalized growth; key: O=C1Nc2ccccc2/C1=C\c1c(Cl)cccc1Cl ; value = 0.973

For record Oc1c(Br)cc(Br)cc1C=Nc1ccc(Sc2ccccc2)nc1Sc1ccccc1 the listed normalized growth is 0.924

Note to self: normalized growth recorded for O=C1Nc2ccccc2/C1=C/c1ccc(Oc2ccccc2)nc1 was 0.959

Entry O=C1Nc2ccccc2/C1=C\c1cccc([N+](=O)[O-])c1 ; normalized growth = 0.961

###

Test: chemical genetic growth profiling, strain panel (AID 1159580);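 note: tested at 20 µM; growth read once vehicle control cultures reached saturation at 30 °C; 1 = growth at the plate median or of vehicle wells; lower values mean less growth of the strain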
Settings: S. cerevisiae deletion strains, growth OD, locus YLR418C, strain cdc73, stronger effect = lower value
The campaign covered roughly 5,500 compounds. About 2,000 (36%) were called active. Another 18% or so got no clear call; they are omitted. This is one part of the list.
Quick reference for normalized growth among some compounds
Keep it simple and answer with nothing but the number.

CN(C)c1nc(N)c(C(=O)N=C(N)N)nc1Cl :: 0.925
C[N+](C)(C)CC(O)CC(=O)O (stereo unspecified) :: 0.993
CC(C)[N+](C)(CCC(C(N)=O)(c1ccccc1)c1ccccc1)C(C)C :: 0.923
C[C@]12CCC3c4ccc(O)cc4CCC3C1C[C@@H](O)[C@@H]2O (stereo partly specified) :: 1.02
NC(N)=NC(=O)c1nc(Cl)c(N)nc1N :: 0.94

Let us examine a further case.
For reference, reported normalized growth for COc1ccc2c(c1)CCC1C2CCC2(C)C1C[C@@H](O)C2O (stereo partly specified) stands at 0.894
